Tested on: Streptomyces coelicolor
Test: Antibacterial activity against Streptomyces coelicolor at 25 ug/mL after 48 hrs
Type: functional, organism-based
Active and inactive are the calls of the source. The calls are words filed in the database; no cut-off is given here.
OBSERVED PROPERTY: Activity

{"columns": ["MOLECULE", "RESULT"],
 "data": [
  ["NCCC[C@H](N)C(=O)N[C@@H](CCc1ccccc1)C(=O)Nc1ccc2ccccc2c1", "inactive"],
  ["NCCC[C@@H](N)C(=O)NC(C(=O)Nc1ccc2ccccc2c1)c1ccccc1 (stereo partly drawn)", "inactive"],
  ["NCCC[C@@H](N)C(=O)NC(C(=O)Nc1ccc2ccccc2c1)c1ccc([N+](=O)[O-])cc1 (stereo partly drawn)", "inactive"]
]}

* * *

Tested on: Streptomyces coelicolor
Experiment: Potentiation of chloramphenicol-induced antibacterial activity against Streptomyces coelicolor at 25 ug/mL after 48 hrs relative to control
Assay type: functional
Where a SMILES comes first, the peptide text is derived from it. The star is where a group is joined. βNA = c1ccc2cc(N*)ccc2c1
Measured fold change (FC), listed per entry for reference.
The response must contain the number and no unit.

{"columns": ["MOLECULE", "TARGET DESC", "fold change (FC)"],
 "data": [
  ["NCCC[C@@H](N)C(=O)NC(CCc1ccccc1)C(=O)Nc1ccc2ccccc2c1 (mixture of isomers)", "Streptomyces coelicolor", 6.5],
  ["NCCC[C@H](N)C(=O)NC(CCc1ccccc1)C(=O)Nc1ccc2ccccc2c1 (mixture of isomers)", "Streptomyces coelicolor", 6.5],
  ["NCCC[C@H](N)C(=O)N[C@@H](CCc1ccccc1)C(=O)Nc1ccc2ccccc2c1", "Streptomyces coelicolor", 5.9]
]}

input: State, in one line, measured fold change (FC) of N=C(N)NCCC[C@H](NC(=O)[C@@H](N)Cc1ccccc1)C(=O)Nc1ccc2ccccc2c1 [PABETAN] (H-Phe-Arg-βNA)
output: 2.6

input: Input `NCCC[C@H](N)C(=O)N[C@H](CCc1ccccc1)C(=O)Nc1ccc2ccccc2c1` , output reported fold change (FC).
output: 7.2

All values here come from ChEMBL document CHEMBL1938247.
